Origin of the recorded values: paper PMC10141580

Quick list: NCI-60 screening: Log(GI50) per entry.
- Test system: NCI-60 standardized human tumor cell line panel
- procedure-text: cells
- Assay type: cell-based
- condition-label: cell line U251 (CNS:U251); TMI sheet
Lab note: write the figure by itself, no unit.

Incoming: Which measured NCI-60 screening: Log(GI50) value corresponds to COc1cc2cc(C(=O)N3C[C@@H](CCl)c4c3cc(OC(=O)N(CCC(=O)N3CCN(C)CC3)[C@H]3CCSSC3)c3ccccc43)[nH]c2c(OC)c1OC ?
Outgoing: -6.79

Incoming: Lookup COc1cc2cc(C(=O)N3CC(CCl)c4c3cc(OC(=O)N3CCN(C)C5CSSCC53)c3ccccc43)[nH]c2c(OC)c1OC (mixture of isomers) [Me-SS66C-CBI-TMI]
Outgoing: -6.86

Incoming: Lookup COc1cc2cc(C(=O)N3CC(CCl)c4c3cc(OC(=O)N3CCN(C)C5CSSCC53)c3ccccc43)[nH]c2c(OC)c1OC (mixture of isomers) [Me-SS66T-CBI-TMI]
Outgoing: -7.96

Incoming: Lookup COc1cc2cc(C(=O)N3C[C@@H](CCl)c4c3cc(OC(=O)N(CCC(=O)N3CCN(C)CC3)C3CCCCC3)c3ccccc43)[nH]c2c(OC)c1OC
Outgoing: -5.82

* * *

- Test system: panel of 140 standard cancer cell lines
- procedure-text: ProliFiler-140 cancer cell line screen (CellTiterGlo, 72 h)
- Assay type: cell-based
- condition-label: PC3 (Prostate); listed as Dox; read-out: IC50 [M] (ProliFiler-140)
- Method: Incubations were performed for 72 h before automated viability readout with CellTiterGlo (Figure 8). End of Figure S11 (part 5 of 5): ProliFiler-140 cancer cell line screening for cytotoxicity of the prodrugs. 8-data-point dose response curves from CellTiter-Glo® viability readout. ProliFiler-140 cell line panel part V
reported-property: IC50

Incoming: Requested read-out IC50, target or system panel of 140 standard cancer cell lines, entry COc1cccc2c1C(=O)c1c(O)c3c(c(O)c1C2=O)C[C@@](O)(C(=O)CO)C[C@@H]3O[C@H]1C[C@H](N)[C@H](O)[C@H](C)O1 [doxorubicin, reference compound]
Outgoing: 7.4e-07 M

* * *

Quick list: pIC50 per entry.
- Tested on: HeLa-HRE cells
- procedure-text: Resazurin cytotoxicity assay, HeLa-HRE, 48 h
- condition-label: initial screening, A549 and HeLa cell lines
pIC50: −log10 of the molar value.

Below: 2 compounds and their reported pIC50.
O=C(c1cc2cc(OCCCN3CCC3)ccc2[nH]1)N1CC(CCl)c2c1cc(OC(=O)N1CCCC3COCC31)c1ccccc21 (mixture of isomers) [O56-CBI-AZI]	~6.52
COc1cc2cc(C(=O)N3C[C@@H](CCl)c4c3cc(OC(=O)N(CCC(=O)N3CCN(C)CC3)C3CCCCC3)c3ccccc43)[nH]c2c(OC)c1OC [P-CC60-CBI-TMI]	< 6.00

Incoming: Which measured pIC50 value corresponds to O=C(c1cc2cc(OCCCN3CCC3)ccc2[nH]1)N1C[C@@H](CCl)c2c1cc(OCc1ccccc1)c1ccccc21 [OBn-CBI-AZI] ?
Outgoing: < 6.00

* * *

- Test system: panel of 140 standard cancer cell lines
- procedure-text: ProliFiler-140 cancer cell line screen (CellTiterGlo, 72 h)
- Assay type: cell-based
- condition-label: MDA MB 231 (Breast); read-out: IC50 [M] (ProliFiler-140)
reported-property: IC50

Incoming: Which measured IC50 value corresponds to COc1cc2cc(C(=O)N3C[C@@H](CCl)c4c3cc(OC(=O)N(CCC(=O)N3CCN(C)CC3)C3CCCCC3)c3ccccc43)[nH]c2c(OC)c1OC ?
Outgoing: 7.4e-07 M

* * *

- Test system: NCI-60 standardized human tumor cell line panel
- procedure-text: cells
- Assay type: cell-based
- condition-label: OVCAR-4; read-out: GI50
Quick list: GI50 per entry.

Below: 4 compounds and their reported GI50.
COc1cc2cc(C(=O)N3CC(CCl)c4c3cc(OC(=O)N3CCN(C)C5CSSCC53)c3ccccc43)[nH]c2c(OC)c1OC (mixture of isomers) [Me-SS66C-CBI-TMI]	1600 nM
COc1cc2cc(C(=O)N3C[C@@H](CCl)c4c3cc(OC(=O)N(CCC(=O)N3CCN(C)CC3)C3CCCCC3)c3ccccc43)[nH]c2c(OC)c1OC [P-CC60-CBI-TMI]	2300 nM
COc1cc2cc(C(=O)N3CC(CCl)c4c3cc(OC(=O)N3CCN(C)C5CSSCC53)c3ccccc43)[nH]c2c(OC)c1OC (mixture of isomers) [Me-SS66T-CBI-TMI]	160 nM
COc1cc2cc(C(=O)N3C[C@@H](CCl)c4c3cc(OC(=O)N(C)CCSSCCN3CCOCC3)c3ccccc43)[nH]c2c(OC)c1OC [SS00M-CBI-TMI]	560 nM

Field: next compound
Incoming: Requested read-out GI50, target or system NCI-60 standardized human tumor cell line panel, entry COc1cc2cc(C(=O)N3C[C@@H](CCl)c4c3cc(OC(=O)N(CCC(=O)N3CCN(C)CC3)[C@H]3CCSSC3)c3ccccc43)[nH]c2c(OC)c1OC [P-SS60-CBI-TMI]
Outgoing: 460 nM

* * *

- Test system: panel of 140 standard cancer cell lines
- procedure-text: ProliFiler-140 cancer cell line screen (CellTiterGlo, 72 h)
- Format: cell-based
- condition-label: Homo sapiens, MDA-MB-468, MDA-MB-468
reported-property: pIC50
For clarity, pIC50 is expressed as the negative log10 of concentration in mol/L.

Incoming: Which measured pIC50 value corresponds to COc1cc2cc(C(=O)N3C[C@@H](CCl)c4c3cc(OC(=O)N3CCN(C(=O)CCC(=O)N5CCN(C)CC5)[C@H]5CSSC[C@H]53)c3ccccc43)[nH]c2c(OC)c1OC [P-SS66C-CBI-TMI] ?
Outgoing: 7.72

* * *

- System: panel of 140 standard cancer cell lines
- procedure-text: ProliFiler-140 cancer cell line screen (CellTiterGlo, 72 h)
- Type: cell-based
- condition-label: read-out: IC50 [M] (ProliFiler-140); DU-145 (Prostate)
reported-property: IC50 (M)
Write down the numeric answer in M and omit the unit.

Incoming: Which measured IC50 value corresponds to COc1cc2cc(C(=O)N3C[C@@H](CCl)c4c3cc(OC(=O)N3CCN(C(=O)CCC(=O)N5CCN(C)CC5)[C@H]5CSSC[C@H]53)c3ccccc43)[nH]c2c(OC)c1OC [P-SS66C-CBI-TMI] ?
Outgoing: 1.62e-08

* * *

- System: NCI-60 standardized human tumor cell line panel
- procedure-text: cells
- Format: cell-based
- condition-label: OVCAR-5; AZI sheet; read-out: GI50
Please assign false (0) whenever GI50 is at or above 20 nM, and true (1) whenever it is below.

CN1CCN(C(=O)CCN(C(=O)Oc2cc3c(c4ccccc24)[C@H](CCl)CN3C(=O)c2cc3cc(OCCCN4CCC4)ccc3[nH]2)[C@H]2CCSSC2)CC1	false (0)

Incoming: Hi there! Is GI50 for CN1CCN(C(=O)Oc2cc3c(c4ccccc24)C(CCl)CN3C(=O)c2cc3cc(OCCCN4CCC4)ccc3[nH]2)C2CSSCC21 (mixture of isomers) [Me-SS66C-CBI-AZI] below 20 nM, do you know?
Outgoing: false (0)

Incoming: Lookup CN1CCN(C(=O)Oc2cc3c(c4ccccc24)C(CCl)CN3C(=O)c2cc3cc(OCCCN4CCC4)ccc3[nH]2)C2CSSCC21 (mixture of isomers) [Me-SS66T-CBI-AZI]
Outgoing: true (1)

Incoming: Lookup O=C(c1cc2cc(OCCCN3CCC3)ccc2[nH]1)N1C[C@@H](CCl)c2c1cc(OCc1ccccc1)c1ccccc21
Outgoing: false (0)

Incoming: Lookup CN(CCSSCCN1CCOCC1)C(=O)Oc1cc2c(c3ccccc13)[C@H](CCl)CN2C(=O)c1cc2cc(OCCCN3CCC3)ccc2[nH]1 [SS00M-CBI-AZI]
Outgoing: false (0)

* * *

- Tested on: NCI-60 standardized human tumor cell line panel
- procedure-text: cells
- Format: cell-based
- condition-label: HT29; read-out: GI50
Please assign F whenever GI50 is at or above 300 nM, and T whenever it is below.

Solved entries (count: 3):
COc1cc2cc(C(=O)N3CC(CCl)c4c3cc(OC(=O)N3CCN(C)C5CSSCC53)c3ccccc43)[nH]c2c(OC)c1OC (mixture of isomers) [Me-SS66C-CBI-TMI]	T
COc1cc2cc(C(=O)N3C[C@@H](CCl)c4c3cc(OC(=O)N(C)CCSSCCN3CCOCC3)c3ccccc43)[nH]c2c(OC)c1OC [SS00M-CBI-TMI]	F
COc1cc2cc(C(=O)N3CC(CCl)c4c3cc(OC(=O)N3CCN(C)C5CSSCC53)c3ccccc43)[nH]c2c(OC)c1OC (mixture of isomers) [Me-SS66T-CBI-TMI]	T

Incoming: Hi there! Is GI50 for COc1cc2cc(C(=O)N3C[C@@H](CCl)c4c3cc(OC(=O)N(CCC(=O)N3CCN(C)CC3)[C@H]3CCSSC3)c3ccccc43)[nH]c2c(OC)c1OC below 300 nM, do you know?
Outgoing: T

Incoming: Lookup COc1cc2cc(C(=O)N3C[C@@H](CCl)c4c3cc(OC(=O)N(CCC(=O)N3CCN(C)CC3)C3CCCCC3)c3ccccc43)[nH]c2c(OC)c1OC
Outgoing: F
